Assay: Induction of apoptosis in human L02 cells assessed as viable cells at 10 nM after 72 hrs by annexin V-FITC/propidium iodide staining-based flow cytometric method (reference value: 96.3%)
Assay type: cell-based
Conditions: read-out: Activity
reported endpoint: viability at 72 h, 0.01 µM
Your reply should be a number followed by the unit it is expressed in.

// viability at 72 h, 0.01 µM lookup, key: COc1cc([C@@H]2c3cc4c(cc3[C@H](OC(=O)CN(C)C(=O)OC(C)(C)C)[C@H]3COC(=O)[C@H]23)OCO4)cc(OC)c1OC 94.1%

----------
Tested on: MCF7
Experiment: Cytotoxicity against human MCF7 cells assessed as growth inhibition after 72 hrs by MTT assay
Type: functional, cell-based
Details: MCF7, 72 h
Please provide measured IC50 for the entries that follow.
Please state the figure in nM; there is no need to write the unit.

// IC50 lookup, key: COc1cc([C@@H]2c3cc4c(cc3[C@H](OC(=O)CN(C)C(=O)c3nc(C)c(C)nc3C)[C@H]3COC(=O)[C@H]23)OCO4)cc(OC)c1OC 66.4

// IC50 lookup, key: CNCC(=O)O[C@H]1c2cc3c(cc2[C@@H](c2cc(OC)c(OC)c(OC)c2)[C@H]2C(=O)OC[C@@H]21)OCO3 17.5

// IC50 lookup, key: COc1cc([C@@H]2c3cc4c(cc3[C@H](OC(=O)[C@@H](N)Cc3ccccc3)[C@H]3COC(=O)[C@H]23)OCO4)cc(OC)c1OC 15.6

// IC50 lookup, key: COc1cc([C@@H]2c3cc4c(cc3[C@H](OC(=O)c3nc(C)c(C)nc3C)[C@H]3COC(=O)[C@H]23)OCO4)cc(OC)c1OC 63.5

// IC50 lookup, key: COc1cc([C@@H]2c3cc4c(cc3[C@H](OC(=O)[C@H](Cc3ccccc3)NC(=O)c3nc(C)c(C)nc3C)[C@H]3COC(=O)[C@H]23)OCO4)cc(OC)c1OC 11.3

// IC50 lookup, key: COc1cc([C@@H]2c3cc4c(cc3[C@H](OC(=O)[C@H](CC(C)C)NC(=O)c3nc(C)c(C)nc3C)[C@H]3COC(=O)[C@H]23)OCO4)cc(OC)c1OC 127

----------
System: MCF7
Test: Cytotoxicity against human MCF7 cells assessed as growth inhibition after 72 hrs by MTT assay
Format: functional, cell-based
Settings: MCF7, 72 h
Please provide measured pIC50 for the entries that follow.
Reminder that pIC50 means the negative base-10 logarithm of the concentration expressed in mol/L.

Please provide the recorded pIC50 for CC[C@H](C)[C@H](NC(=O)c1nc(C)c(C)nc1C)C(=O)O[C@H]1c2cc3c(cc2[C@@H](c2cc(OC)c(OC)c(OC)c2)[C@H]2C(=O)OC[C@@H]21)OCO3 , tested on MCF7. 6.01

Please provide the recorded pIC50 for CC[C@H](C)[C@H](N)C(=O)O[C@H]1c2cc3c(cc2[C@@H](c2cc(OC)c(OC)c(OC)c2)[C@H]2C(=O)OC[C@@H]21)OCO3 , tested on MCF7. 7.76

Please provide the recorded pIC50 for COc1cc([C@@H]2c3cc4c(cc3[C@H](OC(=O)CNC(=O)OC(C)(C)C)[C@H]3COC(=O)[C@H]23)OCO4)cc(OC)c1OC , tested on MCF7. 7.95

Please provide the recorded pIC50 for COc1cc([C@@H]2c3cc4c(cc3[C@H](OC(=O)[C@H](CC(C)C)NC(=O)OC(C)(C)C)[C@H]3COC(=O)[C@H]23)OCO4)cc(OC)c1OC , tested on MCF7. 6.96

Please provide the recorded pIC50 for COc1cc([C@@H]2c3cc4c(cc3[C@H](OC(=O)[C@H](Cc3ccccc3)NC(=O)OC(C)(C)C)[C@H]3COC(=O)[C@H]23)OCO4)cc(OC)c1OC , tested on MCF7. 7.02

Please provide the recorded pIC50 for COc1cc([C@@H]2c3cc4c(cc3[C@H](OC(=O)[C@@H]3CCCN3)[C@H]3COC(=O)[C@H]23)OCO4)cc(OC)c1OC , tested on MCF7. 8.12

Please provide the recorded pIC50 for COc1cc([C@@H]2c3cc4c(cc3[C@H](OC(=O)[C@H](C)NC(=O)OC(C)(C)C)[C@H]3COC(=O)[C@H]23)OCO4)cc(OC)c1OC , tested on MCF7. 6.97

Please provide the recorded pIC50 for COc1cc([C@@H]2c3cc4c(cc3[C@H](OC(=O)[C@H](C)NC(=O)c3nc(C)c(C)nc3C)[C@H]3COC(=O)[C@H]23)OCO4)cc(OC)c1OC , tested on MCF7. 7.81

Values compiled from ChEMBL document CHEMBL4152293.
